# MEASUREMENT PROTOCOL: Pharmacokinetics in Sprague Dawley rats (plasma and brain concentrations, PK parameters)
# Assay type: in vivo
# MEASUREMENT CONTEXT: Sprague Dawley, rat, plasma, po, 10 mg/kg, Sprague Dawley rat, po 10 mg/kg, plasma, 2 h, Rat 5; read-out: Concentration Rat 5
# Experimental: Pharmacokinetics for I-127, I-172 and I-210 were determined in Sprague Dawley rats or CD-1 mice by dosing intravenous (IV), subcutaneous (SC) or per oral (PO) using facility SOPs and sampling plasma at required time points. […] Compounds were extracted from plasma, injected on reverse phase HPLC, eluted with a gradient from 5% to 95% acetonitrile in water and quantified by mass spectrometry with internal standard. […]
READOUT NAME: concentration at 2 h (ng/mL)

MOLECULE	U	READING
O=C1CCC(N2C(=O)c3cccc(NCCOCCOCCNCc4ccc(-n5cc(NC(=O)c6coc(-c7ccnc(NCC8CC8)c7)n6)c(C(F)F)n5)cc4)c3C2=O)C(=O)N1 (stereo not shown)	ng/mL	2.39

====

# MEASUREMENT PROTOCOL: Pharmacokinetics in Sprague Dawley rats (plasma and brain concentrations, PK parameters)
# Type: in vivo
# MEASUREMENT CONTEXT: Sprague Dawley, rat, plasma, po, 10 mg/kg, Rat (Sprague Dawley) po 10 mg/kg; Mean; read-out: AUClast
READOUT NAME: AUC(0-t) (ng·h/mL)

MOLECULE	READING
O=C1CCC(N2C(=O)c3cccc(NCCOCCOCCNCc4ccc(-n5cc(NC(=O)c6coc(-c7ccnc(NCC8CC8)c7)n6)c(C(F)F)n5)cc4)c3C2=O)C(=O)N1 (stereo not shown) [I-210]	15.2

====

# TARGET SYSTEM: IRAK4 (Homo sapiens, UniProt Q9NWZ3)
# Sequence (Q9NWZ3 whole entry): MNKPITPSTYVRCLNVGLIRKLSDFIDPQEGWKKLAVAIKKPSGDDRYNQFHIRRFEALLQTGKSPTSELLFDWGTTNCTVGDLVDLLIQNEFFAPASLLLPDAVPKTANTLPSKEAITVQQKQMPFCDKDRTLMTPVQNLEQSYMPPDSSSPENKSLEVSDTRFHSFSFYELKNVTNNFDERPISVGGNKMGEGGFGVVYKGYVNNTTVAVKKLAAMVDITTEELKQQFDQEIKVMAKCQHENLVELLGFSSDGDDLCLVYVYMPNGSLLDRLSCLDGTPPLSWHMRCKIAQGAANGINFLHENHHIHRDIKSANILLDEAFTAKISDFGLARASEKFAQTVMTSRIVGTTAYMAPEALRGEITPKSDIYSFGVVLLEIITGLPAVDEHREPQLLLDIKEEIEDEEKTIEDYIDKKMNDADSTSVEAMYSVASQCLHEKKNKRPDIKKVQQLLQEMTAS
# MEASUREMENT PROTOCOL: PBMC degradation assay (western blot, % IRAK4 degraded after 4 hours)
# Type: cell-based
# MEASUREMENT CONTEXT: human PBMCs
READOUT NAME: PBMC % IRAK4 Degradation

COMPOUND	READOUT NAME	READING
NC(=O)c1nn(C2CN(C(=O)COCCOCCNc3cccc4c3C(=O)N(C3CCC(=O)NC3=O)C4=O)C2)cc1NC(=O)c1coc(-c2ccnc(NCC(F)(F)F)c2)n1 (centres unmarked) [I-156]	PBMC % IRAK4 Degradation	C (<20% degradation)
NC(=O)c1nn(-c2ccc(C(=O)NCCCCCCCCCCCNc3cccc4c3C(=O)N(C3CCC(=O)NC3=O)C4=O)cc2)cc1NC(=O)c1coc(-c2ccnc(NCC(F)(F)F)c2)n1 (centres unmarked) [I-133]	PBMC % IRAK4 Degradation	B (>20-50% degradation)
NC(=O)c1nn(-c2ccc(C(=O)NCCCCNC(=O)COc3cccc4c3C(=O)N(C3CCC(=O)NC3=O)C4=O)cc2)cc1NC(=O)c1coc(-c2ccnc(NCC(F)(F)F)c2)n1 (centres unmarked) [I-111]	PBMC % IRAK4 Degradation	B (>20-50% degradation)
NC(=O)c1nn(C2CN(C(=O)COCCOCCOCCNc3cccc4c3C(=O)N(C3CCC(=O)NC3=O)C4=O)C2)cc1NC(=O)c1coc(-c2ccnc(NCC(F)(F)F)c2)n1 (centres unmarked) [I-158]	PBMC % IRAK4 Degradation	C (<20% degradation)

Where do the numbers come from? From patent US10874743B2.
